System: HCT-116 colon
Assay Text: NCI tumour cell line growth inhibition, 48 h
Measure Name: TGI

Completed entries (count: 5):
CCN(CC)c1ccc(/C=C/C(=O)c2cccc(NS(C)(=O)=O)c2)cc1 | > 100 µM
Cc1cc(N(CCCNc2ccnc3cc(Cl)ccc23)Cc2cccs2)nc(Cl)n1 | 12.8 µM
Cc1cc(S(=O)(=O)O)ccc1N=Nc1ccc(N=Nc2c(O)ccc3ccccc23)c(C)c1 | > 100 µM
COc1cc(C/C=C/c2ccccc2)c(OC)cc1O | 31.1 µM
CN(C)CCCNC(=O)c1cc(NC(=O)c2cc(NC(=O)c3cc(NC(=O)CCCn4ccc(CO)c4CO)cn3C)cn2C)cn1C | > 100 µM

Batch of 3 compounds: report TGI for each.
1. N/C(=N\Nc1nc2cc([N+](=O)[O-])ccc2o1)c1ccccn1
2. CCOC(=O)/C=C(/C(=O)OCC)n1c(=O)c(C)cn(C2CC(N=[N+]=[N-])C(CO)O2)c1=O (stereo not given)
3. O=C1Nc2ccccc2C12CC(c1ccccc1)=NN2 (stereo not given)

0.222 µM
> 100 µM
> 100 µM

Your task in this section: give TGI for each listed record.
1. COc1ccc(N2CCN(CC(=O)N3CCN(c4nnc(-c5ccccc5)c(-c5ccccc5)n4)CC3)CC2)cc1
2. Cc1nc2ccccc2c(=O)n1NC(=O)Cc1ccccc1

1. 38.6 µM
2. > 100 µM
